# System: 885724-159-R-J1-PDC complex spheroid viability
# experiment: Anticancer human tumor 885724-159-R-J1-PDC patient-derived pancreatic adenocarcinoma cell line growth inhibition [GQUAD]
# conditions: second compound 0.1 µM; first compound 0.0316 µM; hits give low values
value-kind: viability, T/C

The examples below pair each entry with its known result.
compound	viability, T/C
COc1cccc2c1C(=O)c1c(O)c3c(c(O)c1C2=O)CC(O)(C(=O)CO)CC3OC1CC(N)C(O)C(C)O1 (stereo not given) + Cc1cnc(CNC(=O)c2c(=O)c3ccc(N4CCCN(C)CC4)nc3n3c2sc2ccccc23)cn1	106%
CCc1c2c(nc3ccc(O)cc13)-c1cc3c(c(=O)n1C2)COC(=O)[C@]3(O)CC + Cc1[nH]c2ccc(F)cc2c1-c1nc2c3cccnc3c3ncccc3c2[nH]1	70.4%
CC[C@@]1(O)C(=O)OCc2c1cc1n(c2=O)Cc2cc3c(CN(C)C)c(O)ccc3nc2-1 + Cc1cnc(CNC(=O)c2c(=O)c3ccc(N4CCCN(C)CC4)nc3n3c2sc2ccccc23)cn1	103%
CCCS(=O)(=O)Nc1ccc(F)c(C(=O)c2c[nH]c3ncc(-c4ccc(Cl)cc4)cc23)c1F + CN(C)c1ccc(Nc2c3ccc(NC(=O)CCN4CCCC4)cc3nc3cc(NC(=O)CCN4CCCC4)ccc23)cc1	99.8%

Now look at this entry.
# compound COc1ncnc(C2CC2)c1-c1ncc2cnn(Cc3ccc(-c4nc(C(F)(F)F)cn4C(C)C)cc3)c2n1 + Cc1cnc(CNC(=O)c2c(=O)c3ccc(N4CCCN(C)CC4)nc3n3c2sc2ccccc23)cn1 ; its viability, T/C = 117%

---

// values below are reported viability, T/C
# Test system: 885724-159-R-J1-PDC complex spheroid viability
# experiment: Anticancer human tumor 885724-159-R-J1-PDC cell line growth inhibition [GQUAD];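 also: spheroids exposed to agents for seven days before readout; percent of vehicle control viability where 100% = DMSO wells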
# conditions: second compound 0.0316 µM; first compound 0.1 µM; hits give low values
Write down the numeric answer in % and omit the unit.

compound	result-units	viability, T/C
COc1cc(C2c3cc4c(cc3C(OC3OC5COC(C)OC5C(O)C3O)C3COC(=O)C23)OCO4)cc(OC)c1O (stereo not given) + Cc1cnc(CNC(=O)c2c(=O)c3ccc(N4CCCN(C)CC4)nc3n3c2sc2ccccc23)cn1	%	98.3
O=c1[nH]cc(F)c(=O)[nH]1 + Cc1[nH]c2ccc(F)cc2c1-c1nc2c3cccnc3c3ncccc3c2[nH]1	%	103
COc1ccc([C@@H](O)c2cc(-c3ncnc4cc(N5CCOCC5)ccc34)c(F)cc2Cl)nn1 + CN(C)c1ccc(Nc2c3ccc(NC(=O)CCN4CCCC4)cc3nc3cc(NC(=O)CCN4CCCC4)ccc23)cc1	%	89
C#Cc1c(F)ccc2cc(O)cc(-c3ncc4c(N5CC6CCC(C5)N6)nc(OCC56CCCN5CC(F)C6)nc4c3F)c12 (stereo not given) + CN(C)c1ccc(Nc2c3ccc(NC(=O)CCN4CCCC4)cc3nc3cc(NC(=O)CCN4CCCC4)ccc23)cc1	%	112

Now look at this entry.
# compound CCCS(=O)(=O)Nc1ccc(F)c(C(=O)c2c[nH]c3ncc(-c4ccc(Cl)cc4)cc23)c1F + Cc1[nH]c2ccc(F)cc2c1-c1nc2c3cccnc3c3ncccc3c2[nH]1 ; its viability, T/C = 106

---

// values below are reported viability, T/C
# Test system: 885724-159-R-J1-PDC complex spheroid viability
# experiment: Anticancer human tumor 885724-159-R-J1-PDC cell line growth inhibition [GQUAD];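 also: spheroids exposed to agents for seven days before readout; percent of vehicle control viability where 100% = DMSO wells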
# conditions: second compound 0.1 µM; first compound 0.316 µM; hits give low values

The examples below pair each entry with its known result.
compound	viability, T/C
C#Cc1c(F)ccc2cc(O)cc(-c3ncc4c(N5CC6CCC(C5)N6)nc(OCC56CCCN5CC(F)C6)nc4c3F)c12 (stereo unspecified) + CN(C)c1ccc(Nc2c3ccc(NC(=O)CCN4CCCC4)cc3nc3cc(NC(=O)CCN4CCCC4)ccc23)cc1	98.3%
CC1COCCN1c1cc(-c2ccnn2C)c2ccnc(-c3ccn[nH]3)c2n1 (stereo unspecified) + Cc1[nH]c2ccc(F)cc2c1-c1nc2c3cccnc3c3ncccc3c2[nH]1	89.8%
C=CC(=O)N1CCN(c2nc(=O)n(-c3c(C)ccnc3C(C)C)c3nc(-c4c(O)cccc4F)c(F)cc23)C(C)C1 (stereo unspecified) + CN(C)c1ccc(Nc2c3ccc(NC(=O)CCN4CCCC4)cc3nc3cc(NC(=O)CCN4CCCC4)ccc23)cc1	96.5%
CC(C)n1c(=O)n(C)c2cnc3cc(F)c(-c4ccc(OCCCN5CCCCC5)nc4)cc3c21 + Cc1cnc(CNC(=O)c2c(=O)c3ccc(N4CCCN(C)CC4)nc3n3c2sc2ccccc23)cn1	96.1%
C=CCn1c(=O)c2cnc(Nc3ccc(N4CCN(C)CC4)cc3)nc2n1-c1cccc(C(C)(C)O)n1 + Cc1cnc(CNC(=O)c2c(=O)c3ccc(N4CCCN(C)CC4)nc3n3c2sc2ccccc23)cn1	99.7%

Recorded viability, T/C for C=CC(=O)N1CCN(c2nc(=O)n(-c3c(C)ccnc3C(C)C)c3nc(-c4c(O)cccc4F)c(F)cc23)C(C)C1 (stereo unspecified) + Cc1[nH]c2ccc(F)cc2c1-c1nc2c3cccnc3c3ncccc3c2[nH]1 on 885724-159-R-J1-PDC complex spheroid viability was 98.7%

Recorded viability, T/C for Cc1cccc(N(C)C(=O)C2C(O)CCN2c2nc(C)cc(C(F)(F)F)c2C#N)c1 (stereo unspecified) + Cc1cnc(CNC(=O)c2c(=O)c3ccc(N4CCCN(C)CC4)nc3n3c2sc2ccccc23)cn1 on 885724-159-R-J1-PDC complex spheroid viability was 112%

---

# Tested on: 885724-159-R-J1-PDC complex spheroid viability
# experiment: Anticancer human tumor 885724-159-R-J1-PDC cell line growth inhibition [GQUAD];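 also: spheroids exposed to agents for seven days before readout; percent of vehicle control viability where 100% = DMSO wells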
# conditions: second compound 0.0316 µM; first compound 3.16 µM; hits give low values
value-kind: viability, T/C (%)
Write down the numeric answer in % and omit the unit.

The examples below pair each entry with its known result.
compound	result-units	viability, T/C
CC(C)(O)C1CCC(Nc2ccc3ncc(-c4cccc(C(F)(F)F)c4)n3n2)CC1 (stereo unspecified) + Cc1cnc(CNC(=O)c2c(=O)c3ccc(N4CCCN(C)CC4)nc3n3c2sc2ccccc23)cn1	%	44.2
CCCS(=O)(=O)Nc1ccc(F)c(C(=O)c2c[nH]c3ncc(-c4ccc(Cl)cc4)cc23)c1F + Cc1[nH]c2ccc(F)cc2c1-c1nc2c3cccnc3c3ncccc3c2[nH]1	%	123
CC1COCCN1c1cc(-c2ccnn2C)c2ccnc(-c3ccn[nH]3)c2n1 (stereo unspecified) + Cc1cnc(CNC(=O)c2c(=O)c3ccc(N4CCCN(C)CC4)nc3n3c2sc2ccccc23)cn1	%	52.8

# compound CCCS(=O)(=O)Nc1ccc(F)c(C(=O)c2c[nH]c3ncc(-c4ccc(Cl)cc4)cc23)c1F + Cc1cnc(CNC(=O)c2c(=O)c3ccc(N4CCCN(C)CC4)nc3n3c2sc2ccccc23)cn1 ; its viability, T/C = 126

# compound C=CC(=O)N1CCN(c2nc(=O)n(-c3c(C)ccnc3C(C)C)c3nc(-c4c(O)cccc4F)c(F)cc23)C(C)C1 (stereo unspecified) + Cc1[nH]c2ccc(F)cc2c1-c1nc2c3cccnc3c3ncccc3c2[nH]1 ; its viability, T/C = 98

# compound COc1cccc2c1C(=O)c1c(O)c3c(c(O)c1C2=O)CC(O)(C(=O)CO)CC3OC1CC(N)C(O)C(C)O1 (stereo unspecified) + CN(C)c1ccc(Nc2c3ccc(NC(=O)CCN4CCCC4)cc3nc3cc(NC(=O)CCN4CCCC4)ccc23)cc1 ; its viability, T/C = 38.1

# compound COc1cc(C2c3cc4c(cc3C(OC3OC5COC(C)OC5C(O)C3O)C3COC(=O)C23)OCO4)cc(OC)c1O (stereo unspecified) + CN(C)c1ccc(Nc2c3ccc(NC(=O)CCN4CCCC4)cc3nc3cc(NC(=O)CCN4CCCC4)ccc23)cc1 ; its viability, T/C = 73.3

# compound CC1COCCN1c1cc(C2(O)CC3CCC(C2)O3)c2cnn(-c3ccn[nH]3)c2n1 (stereo unspecified) + Cc1cnc(CNC(=O)c2c(=O)c3ccc(N4CCCN(C)CC4)nc3n3c2sc2ccccc23)cn1 ; its viability, T/C = 42.7

# compound O=C(c1cc(Cc2n[nH]c(=O)c3ccccc23)ccc1F)N1CCN(C(=O)C2CC2)CC1 + Cc1[nH]c2ccc(F)cc2c1-c1nc2c3cccnc3c3ncccc3c2[nH]1 ; its viability, T/C = 89.2

# compound O=c1[nH]cc(F)c(=O)[nH]1 + CN(C)c1ccc(Nc2c3ccc(NC(=O)CCN4CCCC4)cc3nc3cc(NC(=O)CCN4CCCC4)ccc23)cc1 ; its viability, T/C = 78

---

# Tested on: 885724-159-R-J1-PDC complex spheroid viability
# experiment: Anticancer human tumor 885724-159-R-J1-PDC cell line growth inhibition [GQUAD];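 also: spheroids exposed to agents for seven days before readout; percent of vehicle control viability where 100% = DMSO wells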
# conditions: second compound 0.1 µM; first compound 0.0999 µM; hits give low values
value-kind: viability, T/C (%)
Write down the numeric answer in % and omit the unit.

The examples below pair each entry with its known result.
compound	result-units	viability, T/C
CCc1c2c(nc3ccc(O)cc13)-c1cc3c(c(=O)n1C2)COC(=O)[C@]3(O)CC + Cc1[nH]c2ccc(F)cc2c1-c1nc2c3cccnc3c3ncccc3c2[nH]1	%	60.9
Cn1ncnc1[C@H]1c2n[nH]c(=O)c3cc(F)cc(c23)N[C@@H]1c1ccc(F)cc1 + Cc1cnc(CNC(=O)c2c(=O)c3ccc(N4CCCN(C)CC4)nc3n3c2sc2ccccc23)cn1	%	98.8
CC[C@@]1(O)C(=O)OCc2c1cc1n(c2=O)Cc2cc3c(CN(C)C)c(O)ccc3nc2-1 + CN(C)c1ccc(Nc2c3ccc(NC(=O)CCN4CCCC4)cc3nc3cc(NC(=O)CCN4CCCC4)ccc23)cc1	%	78

Now look at this entry.
# compound Cc1[nH]c2ccccc2c1CCNCc1ccc(/C=C/C(=O)NO)cc1 + Cc1[nH]c2ccc(F)cc2c1-c1nc2c3cccnc3c3ncccc3c2[nH]1 ; its viability, T/C = 99.6
